TEST SUMMARY: Pharmacokinetic evaluation in rats after intravenous injection and oral administration
Assay type: in vivo
PROTOCOL CONDITIONS: rat, plasma, PO 5 mg/kg, read-out: PK Cmax
Listing of entries alongside the reported Cmax.
Respond numerically; units are µg/mL and should not be typed.

These recorded examples may help you get a feel for the data.
Problem: # get_value(readout='Cmax', item= CC(=O)Nc1cc2c(-c3ccc4c(n3)C3(CCOC3)OC4)cn(C)c2cn1 (stereo not drawn) )
Result: 1.99

Problem: For CC(=O)Nc1cc2c(-c3cc(OCCC(C)(C)O)c4c(n3)C3(CCOC3)OCC4)cn(C)c2cn1 (stereo not drawn) then?
Result: 0.612

Consider now this further compound.
Problem: I'd like to know its Cmax. The compound in question is COc1cc(-c2cn(C)c3cnc(NC(C)=O)cc23)nc2c1COC21CCOC1 (stereo not drawn)
Result: 2.65

---

TEST SUMMARY: Pharmacokinetic evaluation in rats after intravenous injection and oral administration
Type: in vivo
PROTOCOL CONDITIONS: rat, plasma, IV 1 mg/kg, read-out: PK AUClast
MEASUREMENT LABEL: AUC(0-t) (ng·h/mL)
Your answer should be a plain number; it is taken to be in ng·h/mL.

Problem: I am curious: what AUC(0-t) value has been reported for COc1cc(-c2cn(C)c3cnc(NC(C)=O)cc23)nc2c1COC21CCOC1 (centres unmarked) [Example 1] ?
Result: 1650

Continuing:
Problem: Can you share its AUC(0-t)? I mean this compound: CC(=O)Nc1cc2c(-c3ccc4c(n3)C3(CCOC3)OC4)cn(C)c2cn1 (centres unmarked) [Example 2]
Result: 1140

---

half-life values by entry
TEST SUMMARY: Pharmacokinetic evaluation in rats after intravenous injection and oral administration
Assay type: in vivo
PROTOCOL CONDITIONS: rat, plasma, PO 5 mg/kg, read-out: PK T½ (converted)
Give the number; h is assumed, so skip it.

Problem: # input compound: CC(=O)Nc1cc2c(-c3cc(OCCC(C)(C)O)c4c(n3)C3(CCOC3)OCC4)cn(C)c2cn1 (stereo not drawn) [Example 26] ; wanted: its half-life
Result: 3.62

Continuing:
Problem: Would you mind telling me what half-life value was observed for CC(=O)Nc1cc2c(-c3ccc4c(n3)C3(CCOC3)OC4)cn(C)c2cn1 (stereo not drawn) [Example 2] ?
Result: 2.71

Problem: Same lookup for COc1cc(-c2cn(C)c3cnc(NC(C)=O)cc23)nc2c1COC21CCOC1 (stereo not drawn) [Example 1] , please.
Result: 3.11

---

TEST SUMMARY: Stability in human liver microsomes
Assay type: in vitro ADME
PROTOCOL CONDITIONS: human, pH 7.4, read-out: Human T½
MEASUREMENT LABEL: half-life
Your answer should be a number followed by the unit of measure.

Problem: Param item = CC(=O)Nc1cc2c(-c3ccc4c(n3)C3(CCOC3)OC4)cn(C)c2cn1 (centres unmarked) ; retrieve measured half-life.
Result: 0.804 h

New cases:
Problem: Name the recorded half-life for COc1cc(-c2cn(C)c3cnc(NC(C)=O)cc23)nc2c1COC21CCOC1 (centres unmarked) .
Result: 1.92 h

---

TEST SUMMARY: Pharmacokinetic evaluation in rats after intravenous injection and oral administration
Type: in vivo
PROTOCOL CONDITIONS: rat, plasma, IV 2 mg/kg, read-out: PK Cmax
MEASUREMENT LABEL: Cmax (ng/mL)
The response must be a number in ng/mL with no trailing unit.

Problem: Record request: Cmax value, item CC(=O)Nc1cc2c(-c3cc(OCCC(C)(C)O)c4c(n3)C3(CCOC3)OCC4)cn(C)c2cn1 (stereo not shown) [Example 26]
Result: 289

---

TEST SUMMARY: Stability in rat liver microsomes
Type: in vitro ADME
PROTOCOL CONDITIONS: pH 7.4, in vivo intrinsic hepatic clearance extrapolated
MEASUREMENT LABEL: CLint scaled (mL/min/kg)
Please reply with the bare figure in mL/min/kg and do not write the unit itself.

Problem: I am curious: what CLint scaled value has been reported for COc1cc(-c2cn(C)c3cnc(NC(C)=O)cc23)nc2c1COC21CCOC1 (centres unmarked) [Example 1] ?
Result: 16.2

Continuing:
Problem: Item under review: CC(=O)Nc1cc2c(-c3ccc4c(n3)C3(CCOC3)OC4)cn(C)c2cn1 (centres unmarked) [Example 2] . Reported CLint scaled?
Result: 15.4
